experiment: Plasma stability in mouse plasma; type: in vitro ADME; settings: ambient conditions, 1 hour
measure_name: recovery at 1 h (%)

{"smiles_str": "Cc1ccc(S(=O)(=O)OCC(=O)Nc2ccc(C(=O)O)c(O)c2)cc1", "observed_value": 61.2}

* * *

test: Plasma stability in mouse plasma; assay type: in vitro ADME; settings: −20° C., 3 days

{"smiles_str": "Cc1ccc(S(=O)(=O)OCC(=O)Nc2ccc(C(=O)O)c(O)c2)cc1", "recovery at 3 days / %": 58}

* * *

test: Plasma stability in mouse plasma; format: in vitro ADME; details: ambient conditions, 6 hours
measure_name: recovery at 6 h (%)

{"smiles_str": "Cc1ccc(S(=O)(=O)OCC(=O)Nc2ccc(C(=O)O)c(O)c2)cc1", "measure_name": "recovery at 6 h", "unit_info": "%", "observed_value": 15.8}

* * *

experiment: Plasma stability in mouse plasma; assay type: in vitro ADME; conditions: −20° C., 0 days
measure_name: recovery at 0 days (%)

{"smiles_str": "Cc1ccc(S(=O)(=O)OCC(=O)Nc2ccc(C(=O)O)c(O)c2)cc1", "observed_value": 94.5}

* * *

experiment: Plasma stability in mouse plasma; assay type: in vitro ADME; conditions: −20° C., 6 days

{"molecule": "Cc1ccc(S(=O)(=O)OCC(=O)Nc2ccc(C(=O)O)c(O)c2)cc1 [Compound 1]", "unit_info": "%", "recovery at 6 days": 46.6}

* * *

assay: Plasma stability in mouse plasma; type: in vitro ADME; details: ambient conditions, 3 hours

{"smiles_str": "Cc1ccc(S(=O)(=O)OCC(=O)Nc2ccc(C(=O)O)c(O)c2)cc1", "recovery at 3 h": "28.7%"}

Provenance of the data: patent US10913709B2
